# reported IC50; entries follow
# assay_target: T1, recombinant VEGFR-2 protein (water soluble extracellular site of human VEGFR-2 with Fc of human IgG1 … (human, UniProt P35968 20-764))
# T1 construct: extracellular domain; Bought; not shown: Fc of human IgG1
# T1 sequence (P35968 20-764): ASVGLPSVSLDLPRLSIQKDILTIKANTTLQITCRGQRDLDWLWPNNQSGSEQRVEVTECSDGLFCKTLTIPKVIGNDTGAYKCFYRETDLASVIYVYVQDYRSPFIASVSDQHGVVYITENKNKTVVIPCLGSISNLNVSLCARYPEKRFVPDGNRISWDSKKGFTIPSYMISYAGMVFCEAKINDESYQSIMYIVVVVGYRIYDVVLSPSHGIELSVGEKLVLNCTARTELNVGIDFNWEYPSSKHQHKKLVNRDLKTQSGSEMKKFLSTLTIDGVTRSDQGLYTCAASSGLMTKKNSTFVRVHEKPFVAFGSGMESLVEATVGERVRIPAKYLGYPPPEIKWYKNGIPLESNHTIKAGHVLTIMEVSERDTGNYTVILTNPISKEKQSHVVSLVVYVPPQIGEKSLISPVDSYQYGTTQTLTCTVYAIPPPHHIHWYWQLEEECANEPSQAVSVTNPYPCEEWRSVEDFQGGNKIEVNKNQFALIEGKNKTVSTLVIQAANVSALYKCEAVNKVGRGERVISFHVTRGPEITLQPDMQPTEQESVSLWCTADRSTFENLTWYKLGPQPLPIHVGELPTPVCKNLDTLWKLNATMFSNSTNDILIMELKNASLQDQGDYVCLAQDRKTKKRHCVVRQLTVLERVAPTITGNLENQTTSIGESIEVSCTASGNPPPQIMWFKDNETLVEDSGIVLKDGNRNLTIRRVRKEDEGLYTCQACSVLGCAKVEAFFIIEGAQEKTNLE
# assay: competitive ELISA; synergibody titrated with 1 nM VEGFR-2 on coated VEGF 165
Supply the numeric figure in nM, leaving out any unit text.

In plain terms, Syn-Ang-VEGFR-8 (other, Chimeric (human IgG1) SAITAng-2-2 with the peptide at the C-terminus of the heavy chain; also called SAITAng-2-2 x DTN9VEGFR-2-3; not shown: human IgG1 heavy chain constant region with Fc region, from the vector; human light chain constant region, printed as 'constant region of human IgG1') heavy (part 1 of 2): QVQLQQSGPELVKPGASVKMSCKASGYTFTDYVISWVKQRTGQGLEWIGEIYPGSGSTYYNEKFKGKASLTADKSSNTAYMQLSSLTSADSAVYFCVRSRGDYYAMDYWGQGTSVTVSS heavy (part 2 of 2): EAGAYWCKAWGLSPCLVT light: DIQMTQSPSSLSASLGGKVTITCKASQDINNYITWYQHKPGKGPRLLIHYTSTLQPGIPSRFSGSGSGRDYSFSISNLEPEDIATYYCLQYDNLLTFGGGTKLEIK has a documented IC50 of 1.48

In plain terms, Syn-Ang-VEGFR-11 (other, Chimeric (human IgG1) SAITAng-2-3 with the peptide at the C-terminus of the heavy chain; also called SAITAng-2-3 x DTN6VEGFR-2-1; not shown: human IgG1 heavy chain constant region with Fc region, from the vector; human light chain constant region, printed as 'constant region of human IgG1') heavy (part 1 of 2): DVQLVESGGGLVQPGGSRKLSCAASGFTFSSFGMHWVRQAPEKGLEWVAYISSDSSTIYYADTVKGRFTISRDNPKNTLFLQMTSLRSEDTAMYYCAREGGYDDYYAMDYWGQGTSVTVSS heavy (part 2 of 2): TGSDDLCYTFPCMHY light: DIQMTQSPASQSASLGESVTITCLASQTIGTWLAWYQQKPGKSPQLLIYAATSLADGVPSRFSGSGSGTKFSFKISSLQAEDFVSYYCQQLYSIPLTFGGGTKLEIK has a documented IC50 of 0.872

In plain terms, Syn-Ang-VEGFR-6 (other, Chimeric (human IgG1) SAITAng-2-2 with the peptide at the C-terminus of the heavy chain; also called SAITAng-2-2 x DTN6VEGFR-2-1; not shown: human IgG1 heavy chain constant region with Fc region, from the vector; human light chain constant region, printed as 'constant region of human IgG1') heavy (part 1 of 2): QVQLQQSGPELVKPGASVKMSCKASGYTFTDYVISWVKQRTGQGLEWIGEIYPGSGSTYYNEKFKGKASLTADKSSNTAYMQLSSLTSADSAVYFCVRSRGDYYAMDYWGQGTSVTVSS heavy (part 2 of 2): TGSDDLCYTFPCMHY light: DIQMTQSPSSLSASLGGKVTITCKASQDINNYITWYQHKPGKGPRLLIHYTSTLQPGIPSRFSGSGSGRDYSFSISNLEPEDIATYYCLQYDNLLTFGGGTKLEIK has a documented IC50 of 1.56
